# Test system: DMS-114 complex spheroids with HUVEC/MSC, growth % test/control
# METHOD: Anticancer human tumor DMS-114 cell line growth inhibition [AhR]; active = viability on the fitted dose curve at most 10% of control; inactive = the rest;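 note: spheroids exposed to agents for 7 days before readout; 100% = DMSO vehicle control wells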
# STATED_CONDITIONS: second compound 3.16 µM; first compound 10 µM
# Excerpt: Multicellular complex tumor spheroid response to aryl hydrocarbon receptor antagonists in combination with a variety of drugs and investigational agents in selected tumor cell lines […] Compounds. […] If the clinical Cmax for an agent had not been determined, the highest concentration tested was 10 microM (Table 1). […]
Give one outcome, nothing more. List: T for active, F for inactive

Entry CC1COCCN1c1cc(C2(S(C)(=N)=O)CC2)nc(-c2ccnc3[nH]ccc23)n1 (stereo not drawn) + Cc1cncc(-c2nc(NCCc3c[nH]c4ccccc34)c3ncn(C(C)C)c3n2)c1 : call = ?
F

Entry NS(=O)(=O)OCC1CC(n2ccc3c(NC4CCc5ccccc54)ncnc32)CC1O (stereo not drawn) + CC(CO)NC(=O)c1cc(-c2ccc(Cl)cc2)nn(-c2cnn(C)c2)c1=O : call = ?
T

Entry Nc1ccccc1NC(=O)c1ccc(CNC(=O)OCc2cccnc2)cc1 + Cc1cncc(-c2nc(NCCc3c[nH]c4ccccc34)c3ncn(C(C)C)c3n2)c1 : call = ?
T

---

# System: DMS-114 complex spheroids with HUVEC/MSC, growth % test/control
# METHOD: Anticancer human tumor DMS-114 cell line growth inhibition [AhR]; active = viability on the fitted dose curve at most 10% of control; inactive = the rest;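 note: spheroids exposed to agents for 7 days before readout; 100% = DMSO vehicle control wells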
# STATED_CONDITIONS: second compound 10 µM; first compound 0.0949 µM
Give one outcome, nothing more. List: true (1) for active, false (0) for inactive

Entry CCc1c2c(nc3ccc(O)cc13)-c1cc3c(c(=O)n1C2)COC(=O)[C@]3(O)CC + Cc1cncc(-c2nc(NCCc3c[nH]c4ccccc34)c3ncn(C(C)C)c3n2)c1 : call = ?
true (1)

Entry CCc1c2c(nc3ccc(O)cc13)-c1cc3c(c(=O)n1C2)COC(=O)[C@]3(O)CC + CC(CO)NC(=O)c1cc(-c2ccc(Cl)cc2)nn(-c2cnn(C)c2)c1=O : call = ?
false (0)

Entry Nc1ncn(C2CC(O)C(CO)S2)c(=O)n1 (stereo not drawn) + Cc1ccccc1N=Nc1ccc(NC(=O)c2ccnn2C)c(C)c1 : call = ?
false (0)

---

Assign viability, T/C to each entry below.
# System: DMS-114 complex spheroids with HUVEC/MSC, growth % test/control
# METHOD: Anticancer human tumor DMS-114 cell line growth inhibition [AhR];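 note: spheroids exposed to agents for 7 days before readout; 100% = DMSO vehicle control wells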
# STATED_CONDITIONS: second compound 3.16 µM; first compound 10 µM; hits give low values
# Text: Multicellular complex tumor spheroid response to aryl hydrocarbon receptor antagonists in combination with a variety of drugs and investigational agents in selected tumor cell lines […] Compounds. […] If the clinical Cmax for an agent had not been determined, the highest concentration tested was 10 microM (Table 1). […]
The figure you give is taken to be in %; do not add the unit.

Which value of viability, T/C has been reported for COc1cccc2c1C(=O)c1c(O)c3c(c(O)c1C2=O)CC(O)(C(=O)CO)CC3OC1CC(N)C(O)C(C)O1 (stereo not drawn) + Cc1cncc(-c2nc(NCCc3c[nH]c4ccccc34)c3ncn(C(C)C)c3n2)c1 in the records?
0.28

Which value of viability, T/C has been reported for CC(C)c1c(-c2ccccc2)nc2c(C#N)c[nH]n2c1=O + CC(CO)NC(=O)c1cc(-c2ccc(Cl)cc2)nn(-c2cnn(C)c2)c1=O in the records?
105

Which value of viability, T/C has been reported for COc1cc(Nc2ncc3c(n2)-c2ccc(Cl)cc2C(c2c(F)cccc2OC)=NC3)ccc1C(=O)O + CC(CO)NC(=O)c1cc(-c2ccc(Cl)cc2)nn(-c2cnn(C)c2)c1=O in the records?
64.6

Every entry's value here was drawn from PubChem BioAssay AID1919008.
